Test system: KCC2 promoter
ASSAY_INFO: KCC2-LUC luciferase primary screen in primary cortical neurons
Assay type: cell-based, mouse
EXPERIMENTAL_CONTEXT: Natural Compounds; rank score; 100 nM, 48 h
Please respond with reported Luciferase Score (triplicates) for every item in the list.
Number only, please.

Fill in Luciferase Score (triplicates) for C[C@@]12C(=O)OC(=O)[C@]1(C)[C@H]1CC[C@@H]2O1 [cantharidine] tested with KCC2 promoter.
6

Give reported Luciferase Score (triplicates) for COc1cc([C@@H]2c3cc4c(cc3[C@H](O[C@@H]3O[C@@H]5COC(c6ccccc6)O[C@H]5[C@H](O)[C@H]3O)[C@H]3COC(=O)[C@H]23)OCO4)cc(OC)c1OC (stereo partly drawn) [proresidor] (KCC2 promoter)
9

Please look at COc1cc2c3c(c4ccc(OC)c(OC)c4c2cc1OC)CN1CCC[C@H]1C3 [tylocrebrine] and tell me its recorded Luciferase Score (triplicates) on KCC2 promoter.
5

Find Luciferase Score (triplicates) for CC(=O)C1CCCC(=O)C=CC(=O)O1 (stereo not drawn) [NSC180515] on KCC2 promoter and write it down.
4

Specify the recorded Luciferase Score (triplicates) for COc1ccc(C[C@H]2NC[C@H](O)[C@H]2OC(C)=O)cc1 [anisomycine] , system: KCC2 promoter.
3

State the measured Luciferase Score (triplicates) (KCC2 promoter) of COc1cc2c(c(OC)c1OC)-c1ccc(OC)c(=O)cc1[C@@H](NC(C)=O)CC2 [colchicine]
10

* * *

Tested on: KCC2 promoter
ASSAY_INFO: KCC2-LUC luciferase primary screen in primary cortical neurons
Assay type: cell-based, mouse
EXPERIMENTAL_CONTEXT: Natural Compounds; rank score; 100 nM, 48 h
REPORTED_ENDPOINT: Luciferase Score (triplicates)

For the compound "COc1ccc(C(=O)O[C@H]2CC[C@@]3(C)[C@@H]4CC[C@H]5[C@]6(O)C[C@H](O)[C@@]7(O)[C@@H](CN8C[C@@H](C)CC[C@H]8[C@@]7(C)O)[C@]6(O)C[C@@]53O[C@]24O)cc1OC" , give its reported Luciferase Score (triplicates).
7

Consider the compound "CC1(C)CCC[C@]2(C)C3=C(CC[C@@H]12)C(=O)OC3" and give its recorded Luciferase Score (triplicates).
1

Dear colleague, please send me the reported Luciferase Score (triplicates) for CC(=O)N1CCN(c2ccc(OCC3COC(Cn4ccnc4)(c4ccc(Cl)cc4Cl)O3)cc2)CC1 (stereo not shown) when you can.
9

Read off the recorded Luciferase Score (triplicates) for "O=C1Cc2c([nH]c3ccc(Br)cc23)-c2ccccc2N1"
2

* * *

So I've got a bunch of compounds here, and I need their chloride reduction (%) values.
Test system: intracellular chloride ([Cl—]i)
ASSAY_INFO: Secondary screen: Clomeleon chloride imaging in primary mouse neurons
Format: cell-based
Design: concentration or dose not given beside the values
EXPERIMENTAL_CONTEXT: from the [Cl—]i pair of the same line
Your answer should be a plain number; it is taken to be in %.

Please report the measured chloride reduction (%) for "O=C1Cc2c([nH]c3ccc(Br)cc23)-c2ccccc2N1"
33.8

Input "CC(=O)Nc1ccc(-c2nc3ccccc3s2)cc1" , output reported chloride reduction (%).
37.8

Give the reported chloride reduction (%) for this compound. CC(=O)C1CCCC(=O)C=CC(=O)O1 (centres unmarked)
32

Please supply the value of reported chloride reduction (%) for the item "CC1(C)CCC[C@]2(C)C3=C(CC[C@@H]12)C(=O)OC3"
56

State its chloride reduction (%): CC(O)CCC(=O)c1ccoc1 (centres unmarked)
43.2

Input "Cc1cc(-c2nc3ccccc3s2)ccc1N" , output reported chloride reduction (%).
46.3

Give the reported chloride reduction (%) for this compound. "C[C@@]12C(=O)OC(=O)[C@]1(C)[C@H]1CC[C@@H]2O1"
48.5

Identify measured chloride reduction (%) corresponding to "COc1cc2c3c(c4ccc(OC)c(OC)c4c2cc1OC)CN1CCC[C@H]1C3"
52

Answer with the recorded chloride reduction (%) of "Cc1ccc(NC(=O)c2cccc([N+](=O)[O-])c2O)c(C)c1" only.
32.4

Dear colleague, please send me the reported chloride reduction (%) for "COc1ccc(C[C@H]2NC[C@H](O)[C@H]2OC(C)=O)cc1" when you can.
57.3

Answer with reported chloride reduction (%) of "N=C1N=CN=C2C([C@@H]3O[C@H](CO)[C@@H](O)[C@H]3O)=CN=C12"
48.8

* * *

System: intracellular chloride ([Cl—]i)
ASSAY_INFO: Secondary screen: Clomeleon chloride imaging in primary mouse neurons
Type: cell-based
EXPERIMENTAL_CONTEXT: Mechanistic Compounds; rank score
Answer each item with its documented Clomeleon Score (duplicates).

Note down Clomeleon Score (duplicates) recorded for "Cc1cc(-c2nc3ccccc3s2)ccc1N"
4

Give Clomeleon Score (duplicates) for "CC(=O)Nc1ccc(-c2nc3ccccc3s2)cc1"
2

Find the measured Clomeleon Score (duplicates) of CC(O)CCC(=O)c1ccoc1 (centres unmarked) and report it.
3

Please list Clomeleon Score (duplicates) recorded for the compound "N=C1N=CN=C2C([C@@H]3O[C@H](CO)[C@@H](O)[C@H]3O)=CN=C12"
5

Look up and state reported Clomeleon Score (duplicates) for "Cc1ccc(NC(=O)c2cccc([N+](=O)[O-])c2O)c(C)c1"
1
